Origin of the recorded values: paper PMC6337485

Molecular target: Aβ42 fibrils (Homo sapiens, UniProt P05067)
Sequence (P05067 672-713 limits assumed): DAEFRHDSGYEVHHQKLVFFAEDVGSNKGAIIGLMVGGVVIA
Experiment: Congo red binding assay, Aβ42 fibril inhibition
Type: biochemical
Conditions: highest concentration, 1000 µM standard

| COMPOUND | SYSTEM TESTED | Congo-Red Assay % Inhibition |
| --- | --- | --- |
| CC(Cc1ccc(O)c(O)c1)C(C)Cc1ccc(O)c(O)c1 (stereo not shown) [Nordihroguaretic acid (NDGA), Nordihydroguaiaretic acid, reference compound] | Aβ42 fibrils (Homo sapiens, UniProt P05067) | 69 ± 0.4% |
| O=c1c(O)c(-c2ccc(O)c(O)c2)oc2cc(O)cc(O)c12 | Aβ42 fibrils (Homo sapiens, UniProt P05067) | 55 ± 0.71% |
| C/C=C1/[C@H](O[C@@H]2O[C@H](CO)[C@@H](O)[C@H](O)[C@H]2O)OC=C(C(=O)OC)[C@H]1CC(=O)OCCc1ccc(O)c(O)c1 | Aβ42 fibrils (Homo sapiens, UniProt P05067) | 65 ± 0.3% |
| OCCc1ccc(O)c(O)c1 [Hydroxytyrosol (HT), Hydroxytyrosol] | Aβ42 fibrils (Homo sapiens, UniProt P05067) | 50 ± 0.4% |
| O=c1cc(-c2ccc(O)c(O)c2)oc2cc(O)cc(O)c12 | Aβ42 fibrils (Homo sapiens, UniProt P05067) | 61 ± 0.33% |
| C[C@@H]1O[C@@H](OC[C@H]2O[C@@H](Oc3c(-c4ccc(O)c(O)c4)oc4cc(O)cc(O)c4c3=O)[C@H](O)[C@@H](O)[C@@H]2O)[C@H](O)[C@H](O)[C@H]1O [Rutin (RU), Rutin] | Aβ42 fibrils (Homo sapiens, UniProt P05067) | 48 ± 0.33% |
| C[C@@H]1O[C@@H](O[C@@H]2[C@@H](O)[C@H](OCCc3ccc(O)c(O)c3)O[C@H](CO)[C@H]2OC(=O)/C=C/c2ccc(O)c(O)c2)[C@H](O)[C@H](O)[C@H]1O [Verbascoside (VB), Verbascoside] | Aβ42 fibrils (Homo sapiens, UniProt P05067) | 57 ± 0.51% |

* * *

Reported pIC50 values for the following molecules.
Target: Aβ42 fibrils (Homo sapiens)
Experiment: Thioflavin-T (ThT) fluorometric assay, Aβ42 fibril inhibition
Format: biochemical
pIC50: −log10 of the molar value.
EXPERIMENTAL READOUT: pIC50

| MOLECULE | EXPERIMENTAL READOUT | RESULT VALUE |
| --- | --- | --- |
| O=c1cc(-c2ccc(O)c(O)c2)oc2cc(O)cc(O)c12 [Luteolin (LU), Luteolin] | pIC50 | 4.43 |
| C[C@@H]1O[C@@H](O[C@@H]2[C@@H](O)[C@H](OCCc3ccc(O)c(O)c3)O[C@H](CO)[C@H]2OC(=O)/C=C/c2ccc(O)c(O)c2)[C@H](O)[C@H](O)[C@H]1O [Verbascoside (VB), Verbascoside] | pIC50 | 4.65 |
| C/C=C1/[C@H](O[C@@H]2O[C@H](CO)[C@@H](O)[C@H](O)[C@H]2O)OC=C(C(=O)OC)[C@H]1CC(=O)OCCc1ccc(O)c(O)c1 [Oleuropein (OL), Oleuropein] | pIC50 | 4.64 |
| O=c1c(O)c(-c2ccc(O)c(O)c2)oc2cc(O)cc(O)c12 [Quercetin (QU), Quercetin] | pIC50 | 4.34 |

* * *

Reported Aβ-L-DOPA-SH-SY5Y Toxicity % Viability values for the following compounds.
Test system: SH-SY5Y cells
Details: 1000 µM standard, 24 h pre-incubation, then 25 µM Aβ42 and 200 µM L-DOPA for 24 h
EXPERIMENTAL READOUT: Aβ-L-DOPA-SH-SY5Y Toxicity % Viability (%)

| COMPOUND | SYSTEM TESTED | EXPERIMENTAL READOUT | QUANTITY UNIT | RESULT VALUE |
| --- | --- | --- | --- | --- |
| OCCc1ccc(O)c(O)c1 [Hydroxytyrosol (HT), Hydroxytyrosol] | SH-SY5Y cells | Aβ-L-DOPA-SH-SY5Y Toxicity % Viability | % | 64 |
| C/C=C1/[C@H](O[C@@H]2O[C@H](CO)[C@@H](O)[C@H](O)[C@H]2O)OC=C(C(=O)OC)[C@H]1CC(=O)OCCc1ccc(O)c(O)c1 [Oleuropein (OL), Oleuropein] | SH-SY5Y cells | Aβ-L-DOPA-SH-SY5Y Toxicity % Viability | % | 74 |
| O=c1cc(-c2ccc(O)c(O)c2)oc2cc(O)cc(O)c12 [Luteolin (LU), Luteolin] | SH-SY5Y cells | Aβ-L-DOPA-SH-SY5Y Toxicity % Viability | % | 69 |
| O=C(O)/C=C/c1ccc(O)c(O)c1 [Caffeic acid (CA), Caffeic acid] | SH-SY5Y cells | Aβ-L-DOPA-SH-SY5Y Toxicity % Viability | % | 67 |
| C[C@@H]1O[C@@H](OC[C@H]2O[C@@H](Oc3c(-c4ccc(O)c(O)c4)oc4cc(O)cc(O)c4c3=O)[C@H](O)[C@@H](O)[C@@H]2O)[C@H](O)[C@H](O)[C@H]1O [Rutin (RU), Rutin] | SH-SY5Y cells | Aβ-L-DOPA-SH-SY5Y Toxicity % Viability | % | 57 |

* * *

Reported pIC50 values for the following molecules.
Molecular target: Aβ42 fibrils (Homo sapiens, UniProt P05067)
Test: Congo red binding assay, Aβ42 fibril inhibition
Format: biochemical
Conditions: read-out: Congo-Red Assay IC50
pIC50: −log10 of the molar value.

| MOLECULE | pIC50 |
| --- | --- |
| C/C=C1/[C@H](O[C@@H]2O[C@H](CO)[C@@H](O)[C@H](O)[C@H]2O)OC=C(C(=O)OC)[C@H]1CC(=O)OCCc1ccc(O)c(O)c1 [Oleuropein (OL), Oleuropein] | 4.44 |
| OCCc1ccc(O)c(O)c1 [Hydroxytyrosol (HT), Hydroxytyrosol] | 4.01 |
| C[C@@H]1O[C@@H](O[C@@H]2[C@@H](O)[C@H](OCCc3ccc(O)c(O)c3)O[C@H](CO)[C@H]2OC(=O)/C=C/c2ccc(O)c(O)c2)[C@H](O)[C@H](O)[C@H]1O [Verbascoside (VB), Verbascoside] | 4.22 |
| O=c1cc(-c2ccc(O)c(O)c2)oc2cc(O)cc(O)c12 [Luteolin (LU), Luteolin] | 4.33 |

* * *

Molecular target: Aβ42 fibrils (Homo sapiens)
Assay: Thioflavin-T (ThT) fluorometric assay, Aβ42 fibril inhibition
Assay type: biochemical
Details: highest concentration, 1000 µM standard

| COMPOUND | SYSTEM TESTED | QUANTITY UNIT | Thioflavin-T Assay % Inhibition |
| --- | --- | --- | --- |
| CC(Cc1ccc(O)c(O)c1)C(C)Cc1ccc(O)c(O)c1 (stereo not shown) [Nordihroguaretic acid (NDGA), Nordihydroguaiaretic acid, reference compound] | Aβ42 fibrils (Homo sapiens) | % | 70 |
| C[C@@H]1O[C@@H](OC[C@H]2O[C@@H](Oc3c(-c4ccc(O)c(O)c4)oc4cc(O)cc(O)c4c3=O)[C@H](O)[C@@H](O)[C@@H]2O)[C@H](O)[C@H](O)[C@H]1O [Rutin (RU), Rutin] | Aβ42 fibrils (Homo sapiens) | % | 49 |
| C/C=C1/[C@H](O[C@@H]2O[C@H](CO)[C@@H](O)[C@H](O)[C@H]2O)OC=C(C(=O)OC)[C@H]1CC(=O)OCCc1ccc(O)c(O)c1 [Oleuropein (OL), Oleuropein] | Aβ42 fibrils (Homo sapiens) | % | 61 |
| O=c1c(O)c(-c2ccc(O)c(O)c2)oc2cc(O)cc(O)c12 [Quercetin (QU), Quercetin] | Aβ42 fibrils (Homo sapiens) | % | 57 |
| OCCc1ccc(O)c(O)c1 [Hydroxytyrosol (HT), Hydroxytyrosol] | Aβ42 fibrils (Homo sapiens) | % | 45 |
| O=c1cc(-c2ccc(O)c(O)c2)oc2cc(O)cc(O)c12 [Luteolin (LU), Luteolin] | Aβ42 fibrils (Homo sapiens) | % | 64 |
| C[C@@H]1O[C@@H](O[C@@H]2[C@@H](O)[C@H](OCCc3ccc(O)c(O)c3)O[C@H](CO)[C@H]2OC(=O)/C=C/c2ccc(O)c(O)c2)[C@H](O)[C@H](O)[C@H]1O [Verbascoside (VB), Verbascoside] | Aβ42 fibrils (Homo sapiens) | % | 61 |

* * *

Target: Aβ42 fibrils (Homo sapiens, UniProt P05067)
Assay: Congo red binding assay, Aβ42 fibril inhibition
Type: biochemical
Conditions: standard biophenols 10–1000 µM, pre-formed Aβ42 fibril, 2 h, room temperature; read-out: Congo-Red Assay IC50
pIC50: −log10 of the molar value.
EXPERIMENTAL READOUT: pIC50

| MOLECULE | RESULT VALUE |
| --- | --- |
| CC(Cc1ccc(O)c(O)c1)C(C)Cc1ccc(O)c(O)c1 (stereo not shown) [Nordihroguaretic acid (NDGA), Nordihydroguaiaretic acid, reference compound] | 4.84 |
